- Test Name: gradient 5% acetonitrile 3 min, to 50% in 2 min, to 85% in 15 min, held 3 min, 100 µL/min
- Measurement Conditions: column: Zorbax Extend-C18 2.1 x 50 mm; eluents: water / acetonitrile, 0.1% formic acid
Returns one of Condition met or Condition not met; Condition met when RP-LC retention time is >= 800 s.

Sample answers from the record:
>  <Compound>
Cc1nn(CC(=O)N2CCN(c3ccccn3)CC2)c(=O)c2c1sc1ccccc12

>  <Class Label>
Condition not met

$$$$
>  <Compound>
O=C(CN1C(=O)C2CCCCN2c2ccc(S(=O)(=O)N3CCCC3)cc21)N1CCOCC1 (stereo not given)

>  <Class Label>
Condition not met

$$$$
>  <Compound>
COc1c(C(=O)N2CCN(c3ccccc3F)CC2)sc2cccc(F)c12

>  <Class Label>
Condition met

$$$$
>  <Compound>
COc1cccc(/C=C/c2nc(C#N)c(NCCN(C)C)o2)c1

>  <Class Label>
Condition not met

$$$$
>  <Compound>
CCCS(=O)(=O)NCc1ccc2c(c1)CCN2C(=O)CC(C)C

>  <Class Label>
Condition met

$$$$
>  <Compound>
COCCC1(NC(=O)C2CC2)CCN(S(=O)(=O)c2c(C)noc2C)CC1

>  <Class Label>
Condition not met

$$$$

Say whether `O=C1NCCCCCCN(Cc2ccc(C(F)(F)F)cc2)[C@H]2CCC[C@@H]12` shows RP-LC retention time of 800 s or more.
Condition not met

Say whether CCN1c2cc(C(=O)NC3CCN(Cc4ccccc4)CC3)ccc2C(=O)N2CCCCC21 (stereo not given) shows RP-LC retention time of 800 s or more.
Condition not met

Say whether `CCNC(=O)Nc1ccc2c(c1)CN(C(=O)Nc1ccc3c(c1)OCCO3)CCO2` shows RP-LC retention time of 800 s or more.
Condition not met

Say whether COC(=O)C(C)NC(=O)NCc1cccn1Cc1ccc(Cl)cc1 (stereo not given) shows RP-LC retention time of 800 s or more.
Condition met

Say whether `COc1ccccc1NC(=O)C(=O)c1ccc[nH]1` shows RP-LC retention time of 800 s or more.
Condition met

Say whether `Cc1cc(C)n(CC(=O)N2CCCCCCNC(=O)[C@@H]3CCCC[C@@H]32)n1` shows RP-LC retention time of 800 s or more.
Condition not met

Say whether `CCCn1c(=O)c(C)nc2cc(-c3noc(Cc4ccc(F)cc4)n3)ccc21` shows RP-LC retention time of 800 s or more.
Condition met

Say whether `CN1C(=O)c2ccccc2Sc2ccc(NC(=O)N3CCC(C(N)=O)CC3)cc21` shows RP-LC retention time of 800 s or more.
Condition met

Say whether `Cc1cccc(-c2noc(-c3ccc(N4CCN(Cc5ccc6c(c5)OCO6)CC4)nc3)n2)c1` shows RP-LC retention time of 800 s or more.
Condition met

Say whether `COC(=O)c1ccccc1NC(=O)c1cnc2c(c1)c(=O)n(C)c(=O)n2-c1ccccc1` shows RP-LC retention time of 800 s or more.
Condition met

Say whether `CCNC(=O)N1[C@H]2CC[C@@H]1c1cnc(-c3ccccc3)nc1C2` shows RP-LC retention time of 800 s or more.
Condition not met

###

- Test Name: gradient 5% acetonitrile 3 min, to 50% in 2 min, to 85% in 15 min, held 3 min, 100 µL/min
- Measurement Conditions: column: Zorbax Extend-C18 2.1 x 50 mm; eluents: water / acetonitrile, 0.1% formic acid
The label Satisfied is reserved for RP-LC retention time strictly under 800 s; Not satisfied covers values equal to or above it.

>  <Compound>
O=C(c1ccccn1)N1CCCCC1c1nncn1CC1CC1 (centres undefined)

>  <Class Label>
Satisfied

$$$$
>  <Compound>
CCC(C)NC(=O)Cn1c(=O)c(S(=O)(=O)c2ccccc2)cc2cc(C)ccc21 (centres undefined)

>  <Class Label>
Not satisfied

$$$$
>  <Compound>
CCCn1c(=O)c(C)nc2cc(-c3noc(Cc4ccc(OC)c(OC)c4)n3)ccc21

>  <Class Label>
Not satisfied

$$$$
>  <Compound>
COc1ncccc1CNS(=O)(=O)c1ccccc1

>  <Class Label>
Satisfied

$$$$
>  <Compound>
COc1ccc(C(=O)Nc2cc(C(=O)O)ccc2N2CCN(c3ncccn3)CC2)cc1

>  <Class Label>
Not satisfied

$$$$

Check if RP-LC retention time falls below 800 s for `CCOc1ccccc1-c1nc(Cc2noc(-c3cccnc3)n2)c(C)o1` .
Not satisfied

Check if RP-LC retention time falls below 800 s for `COc1ccccc1-c1nc2cnccn2c1NCCC(=O)N1CCc2ccccc21` .
Satisfied

Check if RP-LC retention time falls below 800 s for `CC1CCN(S(=O)(=O)c2ccc(-c3nnc(C(=O)NCc4ccc5c(c4)OCO5)o3)cc2)CC1` .
Not satisfied

Check if RP-LC retention time falls below 800 s for `CCN1CCn2cc(S(=O)(=O)NCc3ccc(C)c(C)c3)cc2C1=O` .
Satisfied
